Provenance of the data: patent US6407094B1

Would you mind telling me the reported melting point of each entry?

Please go through the list and note melting point for each compound.
1. N#Cc1cccc(C2=Nc3cc(OCC4COC(=O)O4)c(C#Cc4ccccc4)cc3NC(=O)C2)c1 (racemic)
2. CN(C)CCSc1cc2c(cc1C#Cc1ccccc1)NC(=O)CC(c1cccc(C#N)c1)=N2
3. N#Cc1cccc(C2=Nc3cc(OCC(=O)O)c(C#Cc4ccccc4)cc3NC(=O)C2)c1
4. CN1CCN(c2cc3c(cc2C#Cc2ccccc2)NC(=O)CC(c2cccc(C#N)c2)=N3)CC1
5. CN(C)Cc1cc2c(cc1-c1ccc(F)cc1)NC(=O)CC(c1cccc(-n3ccnc3)c1)=N2

// result
["222 °C (dec.)", "197 °C (dec.)", "257 °C (dec.)", "222 to 224 °C (dec.)", "115 to 140 °C (dec.)"]

Count: 2. Required value per item: melting point.
1. COC1CCN(c2cc3c(cc2C#Cc2ccccc2)NC(=O)CC(c2cccc(C#N)c2)=N3)CC1
2. COc1cc2c(cc1-c1ccccc1F)NC(=O)CC(c1cccc(-n3cnnc3)c1)=N2

// result
["250 to 251 °C", "188 °C (dec.)"]

====

Reported Metric: melting point

CN(CCO)c1cc2c(cc1C#Cc1ccc(F)cc1)NC(=O)CC(c1cccc(-n3ccnc3)c1)=N2 [Example 38]
217 °C (dec.)
CC1(C)OC2CN(c3cc4c(cc3-c3ccc(F)cc3)NC(=O)CC(c3cccc(-n5ccnc5)c3)=N4)CC2O1 (centres unmarked) [Example 49]
240 °C (dec.)
N#Cc1cccc(C2=Nc3cc(CC(N)=O)c(C#Cc4ccccc4)cc3NC(=O)C2)c1 [Example 17]
250 °C (dec.)
O=C1CC(c2cccc(-n3ccnc3)c2)=Nc2cc(Cl)c(-c3ccc(F)cc3)cc2N1 [Example 56]
209 to 211 °C

Next:
// query Which melting point is listed for N#Cc1cc(C2=Nc3cc(O)c(-c4ccc(F)cc4)cc3NC(=O)C2)ccn1 [Example 74] ?
// result 164 °C
